src = PubChem BioAssay (NCI)

# Test system: T-47D breast
# assaySummary: NCI tumour cell line growth inhibition, 48 h
Assign TGI to each entry below.

Give me TGI for each of these compounds, listed below.
1. COc1cccc2c1C(=O)c1c(O)c3c(c(O)c1C2=O)C[C@@](O)(C(=O)CO)C[C@@H]3OC1CC2C(OCN2CN2COC3C(C)OC(O[C@H]4C[C@](O)(C(=O)CO)Cc5c(O)c6c(c(O)c54)C(=O)c4c(OC)cccc4C6=O)CC32)C(C)O1 (stereo partly specified)
2. N#C/C(=C\c1ccccn1)c1nc2ccccc2o1
3. c1ccc([P+](Cc2ccc(C[P+](c3ccccc3)(c3ccccc3)c3ccccc3)s2)(c2ccccc2)c2ccccc2)cc1

Reply |
0.0174 µM
34.3 µM
> 100 µM
